# key: entry, value: growth
Test system: TK-10 renal
Assay Overview: NCI-60 one-dose screen, 48 h (100 = growth as untreated, 0 = no growth, -100 = all killed)
Reported Conditions: 10 µM
This is part of a sample that, as a whole, favours compounds with a hit. Of some 83,000 tested, about 20% had one in any assay.
Record the value in %, omitting the unit from your answer.

Recorded results for 5 compounds are shown here.
Incoming: State growth on TK-10 renal. Entry: `CC(C)C[C@H](NC(=O)Cn1ccc2ccccc2c1=O)B(O)O`
Outgoing: 11.7

Incoming: Give growth only, for `O=C1c2cc(Cl)ccc2-c2c(O)cc(Cl)cc21` , using TK-10 renal data.
Outgoing: 114

Incoming: Enter measured growth, system TK-10 renal, for the compound shown: `Nc1c(C(=O)NC2CCCCC2)sc2nc3c(cc12)C(=O)CCC3`
Outgoing: 140

Incoming: Retrieve growth on TK-10 renal; query `Cc1ccc2c3c(cccc13)-c1ccccc1C2=O`
Outgoing: 94

Incoming: Report measured growth on TK-10 renal; entry: COc1ccc(C2C=C(c3ccc(OC)c(OC)c3)N=C3SC=CN32)c(Br)c1 (stereo unspecified)
Outgoing: 106

Others:
Incoming: Report measured growth on TK-10 renal; entry: `COc1ccc(-c2csc(-c3cc(Cl)cc(Cl)c3Cl)n2)cc1`
Outgoing: 118

Incoming: Report value: growth, system: TK-10 renal, compound: Cn1c(=O)c2[nH]c(C(O)c3ccc(Cl)cc3)nc2n(C)c1=O (stereo unspecified)
Outgoing: 108

Incoming: For TK-10 renal, give growth of the listed compound: `O=C(Nc1ccc(Oc2ccc(Nc3nc4ccccc4s3)cc2)cc1)Nc1ccc(Cl)c(Cl)c1`
Outgoing: 54.1

From: PubChem BioAssay (NCI)
